In this section, each of the variants is paired with its reported self-cleavage.
B1: CPEB3 Ribozyme (parent)
chain: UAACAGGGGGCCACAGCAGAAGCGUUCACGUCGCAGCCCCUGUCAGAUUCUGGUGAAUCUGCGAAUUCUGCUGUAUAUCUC

Variants of: B1
assay_procedure: self-cleavage, relative activity (ratio to wild type); higher = more cleavage; in vitro, sequencing
In your answer, state the number alone without any accompanying words.

Please report the recorded self-cleavage for "UAACAGGGGGCCACAGCAGAAGCGUUCACGUCGCAGCCCCUGUCAGAUUCUGGUGAAUCUGCGGAUUCUUCUGUAUAUCUC" .
0.29

Note, next up: "UAACAGGGGGCCACAGCAGAAGCGUUCACGUCGCAGCCCCUGUCAGAUUCUGGUGAAUCUGCGAAUUCUGCUGUGUAUCUU"
1.18

Note, next up: "UAACAGGGGGCCACAGCAGAGGCGUUCACGUCGCAGCCCCUGUCAGAUUCUGGUGAAUCUGCGAAUUCUGCUGUAUGUCUC"
0.66

Note, next up: "UAACAGGGGGCCACAGCAGAAGCGUUCACGUUGCAGCCCCUGUCAAAUUCUGGUGAAUCUGCGAAUUCUGCUGUAUAUCUC"
0.15
